src = the supplement of paper PMC9112550

# maps each entry to its shrunken log2 fold change
- Tested on: Escherichia coli TOP10
- MEASUREMENT_NOTES: shrunken log2 fold change of peptide-encoding DNA abundance (4.5 h post-induction vs induction); higher = less antimicrobial activity (less host growth inhibition)
- CONDITION_NOTES: time post-induction: 4.5 h; library: site-saturation at positions 5, 18, 19, 20
Number only, please.

Some entries whose results are on file:
Field shrunken log2 fold change (entry RRIRERPPRLPRPRPRPFMMPRP ) reads -0.584

Field shrunken log2 fold change (entry RRIRNRPPRLPRPRPRPHWRPRP ) reads 0.201

Field shrunken log2 fold change (entry RRIRHRPPRLPRPRPRPMKIPRP ) reads -0.0248

Further cases:
Field shrunken log2 fold change (entry RRIRLRPPRLPRPRPRPASYPRP ) reads -0.308

Field shrunken log2 fold change (entry RRIRMRPPRLPRPRPRPCHQPRP ) reads -0.0062

Field shrunken log2 fold change (entry RRIRARPPRLPRPRPRPYIDPRP ) reads -0.186

Field shrunken log2 fold change (entry RRIRERPPRLPRPRPRPTAIPRP ) reads 0.32

Field shrunken log2 fold change (entry RRIRDRPPRLPRPRPRPPLEPRP ) reads 0.699

Field shrunken log2 fold change (entry RRIRTRPPRLPRPRPRPMHRPRP ) reads -0.142

Field shrunken log2 fold change (entry RRIRHRPPRLPRPRPRPTEYPRP ) reads -0.301

###

- Test system: Escherichia coli TOP10
- MEASUREMENT_NOTES: shrunken log2 fold change of peptide-encoding DNA abundance (4.5 h post-induction vs induction); higher = less antimicrobial activity (less host growth inhibition)
- CONDITION_NOTES: time post-induction: 4.5 h; library: site-saturation at positions 5, 18, 19, 20
READOUT_LABEL: shrunken log2 fold change
Number only, please.

Field shrunken log2 fold change (entry RRIRARPPRLPRPRPRPTDTPRP ) reads 0.535

Field shrunken log2 fold change (entry RRIRYRPPRLPRPRPRPGIIPRP ) reads -0.0361

Field shrunken log2 fold change (entry RRIRPRPPRLPRPRPRPLRFPRP ) reads 0.431

Field shrunken log2 fold change (entry RRIRFRPPRLPRPRPRPSKAPRP ) reads -0.367

Field shrunken log2 fold change (entry RRIRPRPPRLPRPRPRPLVEPRP ) reads 0.846

Further cases:
Field shrunken log2 fold change (entry RRIRNRPPRLPRPRPRPYFMPRP ) reads -1.09

Field shrunken log2 fold change (entry RRIRMRPPRLPRPRPRPKESPRP ) reads 0.939

Field shrunken log2 fold change (entry RRIRIRPPRLPRPRPRPLMHPRP ) reads -0.384

Field shrunken log2 fold change (entry RRIRGRPPRLPRPRPRPVQCPRP ) reads 0.102

Field shrunken log2 fold change (entry RRIRLRPPRLPRPRPRPMCLPRP ) reads -0.166

Field shrunken log2 fold change (entry RRIRKRPPRLPRPRPRPYGCPRP ) reads -0.00151

Field shrunken log2 fold change (entry RRIRCRPPRLPRPRPRPEPDPRP ) reads 0.307

###

- Test system: Escherichia coli TOP10;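 further: peptides expressed intracellularly from a pBAD plasmid library in pooled LB shake-flask culture, induced with 0.3% L-arabinose, DNA abundance read by NGS, three biological replicates, DESeq2 with apeglm shrinkage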
- MEASUREMENT_NOTES: shrunken log2 fold change of peptide-encoding DNA abundance (4.5 h post-induction vs induction); higher = less antimicrobial activity (less host growth inhibition)
- CONDITION_NOTES: time post-induction: 4.5 h; library: site-saturation at positions 5, 18, 19, 20
Would you please tag the item Y when its shrunken log2 fold change is 0.03 or above, and N when it is below?

See these solved cases before continuing.
Exercise: Hi team, for RRIRVRPPRLPRPRPRPHMKPRP , is the recorded shrunken log2 fold change at or above 0.03?
Key: N

Exercise: Hi team, for RRIRMRPPRLPRPRPRPPYDPRP , is the recorded shrunken log2 fold change at or above 0.03?
Key: Y

Exercise: Hi team, for RRIRVRPPRLPRPRPRPNGNPRP , is the recorded shrunken log2 fold change at or above 0.03?
Key: N

Exercise: Hi team, for RRIRRRPPRLPRPRPRPSYTPRP , is the recorded shrunken log2 fold change at or above 0.03?
Key: N

Exercise: Hi team, for RRIRARPPRLPRPRPRPLVDPRP , is the recorded shrunken log2 fold change at or above 0.03?
Key: Y

Further cases:
Exercise: Hi team, for RRIRARPPRLPRPRPRPHRLPRP , is the recorded shrunken log2 fold change at or above 0.03?
Key: N
